test system: Trichophyton rubrum; assay: Antimicrobial activity against Trichophyton rubrum after 48 hrs by broth microdilution technique; format: functional
MIC strictly under 50 µg/mL means True; at 50 µg/mL or over means False.

[
  {
    "COMPOUND": "CCCCCCOC(=O)c1cc(O)c(O)c(O)c1 [HEXYL GALLATE]",
    "EXPERIMENTAL_SYSTEM": "Trichophyton rubrum",
    "ANSWER_LABEL": "True"
  },
  {
    "COMPOUND": "CCCCCCCCOC(=O)c1cc(O)c(O)c(O)c1 [OCTYL_GALLATE]",
    "EXPERIMENTAL_SYSTEM": "Trichophyton rubrum",
    "ANSWER_LABEL": "True"
  },
  {
    "COMPOUND": "CCCCCCCCCCCCCCCCCCOC(=O)c1cc(O)c(O)c(O)c1 [OCTADECYL GALLATE]",
    "EXPERIMENTAL_SYSTEM": "Trichophyton rubrum",
    "ANSWER_LABEL": "False"
  },
  {
    "COMPOUND": "CCCCCCCCCCCOC(=O)c1cc(O)c(O)c(O)c1 [UNDECYL GALLATE]",
    "EXPERIMENTAL_SYSTEM": "Trichophyton rubrum",
    "ANSWER_LABEL": "False"
  },
  {
    "COMPOUND": "CN(C/C=C/C#CC(C)(C)C)Cc1cccc2ccccc12 [TERBINAFINE]",
    "EXPERIMENTAL_SYSTEM": "Trichophyton rubrum",
    "ANSWER_LABEL": "True"
  },
  {
    "COMPOUND": "CCCCCCCCCCOC(=O)c1cc(O)c(O)c(O)c1 [DECYL GALLATE]",
    "EXPERIMENTAL_SYSTEM": "Trichophyton rubrum",
    "ANSWER_LABEL": "True"
  },
  {
    "COMPOUND": "CCOC(=O)c1cc(OC)c(OC)c(OC)c1 [ETHYLTRIMETHOXY BENZOATE]",
    "EXPERIMENTAL_SYSTEM": "Trichophyton rubrum",
    "ANSWER_LABEL": "False"
  }
]
